Reference source: paper PMC9945865

Catalogue of Tm values
system: VEGF i-motif DNA; assay: I-motif DNA UV melting (thermal stability); type: binding, human; details: VEGF i-motif with flavone at 1 : 1 ratio, 295 nm; free DNA 46 °C
Please give a number only; it is taken to be in °C.

{"columns": ["mol", "target", "Tm / °C"],
 "data": [
  ["Cc1ccc(C(C)C)cc1.O=c1cc(-c2ccc(Cl)cc2)oc2cc(O)cc([O-])c12.[Cl-].[Ru+2]", "VEGF i-motif DNA", 47]
]}

The compound `O=c1cc(-c2ccc(Cl)cc2)oc2cc(O)cc(O)c12` showed Tm equal to 44

Form: compound = `Oc1cc(O)c2c(=S)cc(-c3ccc(Cl)cc3)oc2c1` ; Tm = 47

Short answer for `Cc1ccc(C(C)C)cc1.[Cl-].[O-]c1cc(O)cc2oc(-c3ccc(Cl)cc3)cc(=S)c12.[Ru+2]` : Tm was 42

====

test system: c-myc i-motif DNA; experiment: I-motif DNA binding, UV-visible absorbance; design: species or system human; conditions: DNA : flavonoid 2 μM : 2 μM, pH 5.5, 25 °C
parameter_measured: hyperchromic shift (increase) at absorbance maximum λmax (%)
Give the number; % is assumed, so skip it.

{"columns": ["mol", "measurement"],
 "data": [
  ["Cc1ccc(C(C)C)cc1.O=c1cc(-c2ccc(Cl)cc2)oc2cc(O)cc([O-])c12.[Cl-].[Ru+2]", 5],
  ["O=c1cc(-c2ccc(Cl)cc2)oc2cc(O)cc(O)c12", 2],
  ["Oc1cc(O)c2c(=S)cc(-c3ccc(Cl)cc3)oc2c1", 18]
]}

Please examine the following record next.
Reported hyperchromic shift (increase) at absorbance maximum λmax of `Cc1ccc(C(C)C)cc1.[Cl-].[O-]c1cc(O)cc2oc(-c3ccc(Cl)cc3)cc(=S)c12.[Ru+2]` : 8
